- test-system: GlcNAc(b1-2)[GlcNAc(b1-4)]Man(a1-3)[GlcNAc(b1-4)][GlcNAc(b1-2)[GlcNAc(b1-6)]Man(a1-6)]Man(b1-4)GlcNAc(b1-4)[Fuc(a1-6)]GlcNAc
- method-summary: glycan array binding signal (z-score within array); higher = stronger binding
- conditions: glycan notation: IUPAC condensed, linker removed
The sample as a whole holds a higher share of the strongest signals than the screen did.
quantity-measured: glycan array binding signal (z-score)
Hey, just send me the number, nothing else.

SP8524D-bot-399-27-399 (Bacteroides ovatus) (protein) DAKYDTLDTHAYIEEALSSTSQKVTVQATGESFTTLNVHLSNLSSTDNHYKLVTDQSVLDTYNHINGTGYIMLPKDYYTLPETITVKAGQYAADALSIALKAFSQEMMKSGESYALPVKLVLQDGSISPMENTGTFVILAESIIEFSAPMFVGAPSLKANKFTESPETYSQYTIEVRFQVANTADRDRAVFKNGGDDANFILLRFEDPQSDNENYKAHSLVQIVGRNRLYLNPSNSFKPNEWQHLALVCDGSNYRLYINGVDSGVLSIPTGATTFSDVNWFCLGDDSYSRWGNCKILMSEARIWSVVRSASQIQNNMTQVSPKSVGLEAYWRFNEGQGNVFEDATGKGHTLTTSATPTWIDGILSTDKSTEWK ... 2.04

Below: the item to evaluate.
Kindly indicate its recorded glycan array binding signal (z-score). Item: RsaA-N-term (Caulobacter crescentus), P35828 (protein) MAYTTAQLVTAYTNANLGKAPDAATTLTLDAYATQTQTGGLSDAAALTNTLKLVNSTTAVAIQTYQFFTGVAPSAAGLDFLVDSTTNTNDLNDAYYSKFAQENRFINFSINLATGAGAGATAFAAAYTGVSYAQTVATAYDKIIGNAVATAAGVDVAAAVAFLSRQANIDYLTAFVRANTPFTAAADIDLAVKAALIGTILNAATVSGIGGYATATAAMINDLSDGALSTDNAAGVNLFTAYPSSGVSGSTLSLTTGTDTLTGTANNDTFVAGEVAGDGSGWSHPQFEKGG
0.317
